All figures here come from ChEMBL document CHEMBL4184303.

- Test system: BV-2
- experimental-protocol: Antiinflammatory activity in mouse BV2 cells assessed as inhibition of LPS-induced nitric oxide production
- Assay type: functional, cell-based
quantity-name: pIC50
Formally, pIC50 is defined as -log10 of the concentration c, with c in mol/L.

Query block: I would be grateful if you could share the reported pIC50 for COc1ccc([C@@H]2COc3cc(O)ccc3C2=O)c(O)c1 .
Result block: 4.40

Query block: I would be grateful if you could share the reported pIC50 for O=c1c(-c2ccc(O)cc2)coc2cc(O)cc(O)c12 .
Result block: 4.55

Query block: I would be grateful if you could share the reported pIC50 for COc1ccc(-c2coc3c(OC)c(OCC=C(C)C)ccc3c2=O)cc1 .
Result block: 4.45

Query block: I would be grateful if you could share the reported pIC50 for COc1cc(-c2coc3cc(O)ccc3c2=O)ccc1O .
Result block: 4.40

Query block: I would be grateful if you could share the reported pIC50 for CC(C)=CCOc1ccc2c(=O)c(-c3ccc4c(c3)OCO4)coc2c1 .
Result block: 4.33

Query block: I would be grateful if you could share the reported pIC50 for C[C@@H]1C[C@H]2[C@@H]3CCC4=CC(=O)C=C[C@]4(C)[C@@]3(F)[C@@H](O)C[C@]2(C)[C@@]1(O)C(=O)CO .
Result block: 5.02

Query block: I would be grateful if you could share the reported pIC50 for COc1cc(O)c2c(=O)c(-c3cc(OC)c(O)c(O)c3CC=C(C)C)coc2c1 .
Result block: 4.78

====

- Tested on: BV-2
- experimental-protocol: Antiinflammatory activity in mouse BV2 cells assessed as inhibition of LPS-induced nitric oxide production
- Assay type: functional, cell-based
Known IC50 of a selection of molecules
Give the value in µM but do not write µM after it.

# example entries with known answers
{"structure-notation": "COc1ccc(-c2coc3c(-c4c(OC)cc([C@@H]5OO[C@@H]5CO)cc4OC)c(O)ccc3c2=O)cc1O", "tested-on": "BV-2", "measurement": 9}
{"structure-notation": "COc1ccc(-c2coc3cc(OCC=C(C)C)ccc3c2=O)cc1OC", "tested-on": "BV-2", "measurement": 36.9}
{"structure-notation": "COc1ccc(-c2coc3cc(O)cc(O)c3c2=O)cc1O", "tested-on": "BV-2", "measurement": 26.3}
{"structure-notation": "COc1ccc(-c2coc3cc(OCC=C(C)C)ccc3c2=O)cc1", "tested-on": "BV-2", "measurement": 45.2}
{"structure-notation": "COc1cc(O)c([C@@H]2COc3cc(O)ccc3C2=O)c(OC)c1OC", "tested-on": "BV-2", "measurement": 35.8}

Below: the item to evaluate.
Query block: I would be grateful if you could share the reported IC50 for COc1cc(-c2coc3cc(O)ccc3c2=O)cc(O)c1-c1c(OC)cc([C@@H]2OO[C@@H]2CO)cc1OC .
Result block: 19.7

====

- Tested on: BV-2
- experimental-protocol: Antiinflammatory activity in mouse BV2 cells assessed as inhibition of LPS-induced nitric oxide production
- Assay type: functional, cell-based
pIC50: −log10 of the molar value.
Known pIC50 of a selection of molecules

Query block: I would be grateful if you could share the reported pIC50 for COc1cc(-c2coc3c(CC=C(C)C)c(O)c(CC=C(C)C)c(O)c3c2=O)ccc1O [FLEMINGSIN] .
Result block: < 4.30

Query block: I would be grateful if you could share the reported pIC50 for COc1ccc([C@@]2(O)COc3cc(OC)ccc3C2=O)c(O)c1 .
Result block: < 4.30

Query block: I would be grateful if you could share the reported pIC50 for COc1ccc([C@@H]2COc3cc(O)ccc3C2=O)c(OC)c1 [(3R)-SATIVANONE] .
Result block: < 4.30
